test target: Serine/threonine-protein kinase 31 (Homo sapiens)
Sequence (Q9BXU1 whole entry): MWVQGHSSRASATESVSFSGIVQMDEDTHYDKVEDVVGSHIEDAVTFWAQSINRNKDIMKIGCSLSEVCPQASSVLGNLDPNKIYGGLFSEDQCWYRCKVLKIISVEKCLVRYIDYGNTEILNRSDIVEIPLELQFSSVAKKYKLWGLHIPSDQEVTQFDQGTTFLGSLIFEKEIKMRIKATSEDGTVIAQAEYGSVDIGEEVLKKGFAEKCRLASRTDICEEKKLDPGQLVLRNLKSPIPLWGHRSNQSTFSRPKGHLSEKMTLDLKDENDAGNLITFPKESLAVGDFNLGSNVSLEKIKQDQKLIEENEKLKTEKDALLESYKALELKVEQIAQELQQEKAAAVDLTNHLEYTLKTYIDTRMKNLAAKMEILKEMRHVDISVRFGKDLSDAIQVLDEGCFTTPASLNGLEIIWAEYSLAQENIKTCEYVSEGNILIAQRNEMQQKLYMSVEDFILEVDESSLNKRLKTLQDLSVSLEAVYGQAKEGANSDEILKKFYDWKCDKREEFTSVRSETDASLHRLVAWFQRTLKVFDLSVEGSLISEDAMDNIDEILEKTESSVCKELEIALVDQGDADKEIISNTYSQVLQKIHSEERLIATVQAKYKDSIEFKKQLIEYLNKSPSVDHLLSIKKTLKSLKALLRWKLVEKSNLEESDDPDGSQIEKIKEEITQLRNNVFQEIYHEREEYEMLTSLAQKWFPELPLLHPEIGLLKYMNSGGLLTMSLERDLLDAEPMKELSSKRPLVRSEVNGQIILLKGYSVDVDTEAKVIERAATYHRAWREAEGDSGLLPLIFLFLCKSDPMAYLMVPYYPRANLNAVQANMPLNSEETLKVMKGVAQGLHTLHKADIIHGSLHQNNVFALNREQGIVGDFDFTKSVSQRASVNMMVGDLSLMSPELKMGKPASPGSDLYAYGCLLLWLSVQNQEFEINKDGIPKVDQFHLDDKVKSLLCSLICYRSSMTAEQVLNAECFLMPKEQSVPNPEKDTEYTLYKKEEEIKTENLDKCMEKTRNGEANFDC
pKi: −log10 of the molar value.
experimental endpoint: pKi

Item N#Cc1ncc2nc1OCCCCOc1cc(NCc3cncs3)c(Cl)cc1NC(=O)N2 has what recorded pKi? < 5.84

---

test target: NUAK family SNF1-like kinase 1 (Homo sapiens)
Sequence (O60285 whole entry): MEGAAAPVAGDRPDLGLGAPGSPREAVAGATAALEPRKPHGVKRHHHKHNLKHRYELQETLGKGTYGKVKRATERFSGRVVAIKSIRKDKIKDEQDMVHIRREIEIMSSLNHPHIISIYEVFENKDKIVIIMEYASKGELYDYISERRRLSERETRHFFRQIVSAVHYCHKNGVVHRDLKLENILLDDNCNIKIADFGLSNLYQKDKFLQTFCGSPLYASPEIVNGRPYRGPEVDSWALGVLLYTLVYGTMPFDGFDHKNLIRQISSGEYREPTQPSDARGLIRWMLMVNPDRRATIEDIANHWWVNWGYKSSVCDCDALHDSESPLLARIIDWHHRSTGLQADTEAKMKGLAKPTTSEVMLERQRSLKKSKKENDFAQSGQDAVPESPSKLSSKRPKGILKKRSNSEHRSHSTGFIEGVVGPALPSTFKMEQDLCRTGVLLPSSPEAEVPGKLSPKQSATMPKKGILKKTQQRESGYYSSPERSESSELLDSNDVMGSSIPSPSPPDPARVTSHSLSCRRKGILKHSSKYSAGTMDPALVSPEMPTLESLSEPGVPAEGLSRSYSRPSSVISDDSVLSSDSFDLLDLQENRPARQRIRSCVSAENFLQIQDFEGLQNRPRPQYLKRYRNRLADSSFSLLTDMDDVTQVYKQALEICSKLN
pKi: −log10 of the molar value.
experimental endpoint: pKi

Item N#Cc1ncc2nc1OCCCCOc1cc(NCc3cncs3)c(Cl)cc1NC(=O)N2 has what recorded pKi? < 5.82
